Target: Neutral endopeptidase (neprilysin) (Homo sapiens, UniProt P08473)
Sequence (P08473 whole entry): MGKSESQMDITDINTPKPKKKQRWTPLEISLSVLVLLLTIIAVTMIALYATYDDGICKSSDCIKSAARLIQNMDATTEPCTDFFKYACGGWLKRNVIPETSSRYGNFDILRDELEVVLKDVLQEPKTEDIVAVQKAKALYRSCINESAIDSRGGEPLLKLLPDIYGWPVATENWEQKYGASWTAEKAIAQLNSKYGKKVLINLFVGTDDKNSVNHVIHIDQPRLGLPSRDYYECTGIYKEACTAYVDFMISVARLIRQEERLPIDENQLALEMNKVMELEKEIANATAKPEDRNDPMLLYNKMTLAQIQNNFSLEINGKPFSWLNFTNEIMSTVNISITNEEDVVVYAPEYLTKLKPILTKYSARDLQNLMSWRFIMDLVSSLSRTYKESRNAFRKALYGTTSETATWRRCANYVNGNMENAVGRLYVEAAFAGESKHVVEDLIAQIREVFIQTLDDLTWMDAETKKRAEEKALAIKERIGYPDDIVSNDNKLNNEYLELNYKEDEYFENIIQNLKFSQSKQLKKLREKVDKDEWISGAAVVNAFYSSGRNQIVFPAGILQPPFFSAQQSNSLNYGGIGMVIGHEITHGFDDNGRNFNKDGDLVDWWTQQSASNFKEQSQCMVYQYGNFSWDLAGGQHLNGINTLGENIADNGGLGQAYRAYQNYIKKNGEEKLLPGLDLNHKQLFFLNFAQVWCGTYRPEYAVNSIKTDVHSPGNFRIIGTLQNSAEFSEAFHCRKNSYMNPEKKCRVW
measureName: IC50 (nM)

>>> endpointvalue("CC(C)C[C@H](NP(=O)(O)O[C@@H]1O[C@@H](C)[C@H](O)[C@@H](O)[C@H]1O)C(=O)N[C@@H](Cc1c[nH]c2ccccc12)C(=O)O")
1.99
